B1: RBBP5 (parent)
chain: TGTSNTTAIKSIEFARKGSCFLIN

Variants of: B1
Assay: protein stability index of a GFP-peptide fusion (GPS, HEK-293T) (PSI 1-6); higher = more stable;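 note: lentivirally expressed fusions sorted by FACS into six bins by GFP to DsRed ratio, PSI derived from sequencing read proportions per bin multiplied by bin number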
Conditions: c terminus: a fixed tail appended
Outcome: rule met for protein stability index of at least 2; rule not met for anything lower.

[[record]]
variant = "S4R"
class_assignment = "rule not met"

[[record]]
variant = "S19C"
class_assignment = "rule met"

[[record]]
variant = "I9T"
class_assignment = "rule met"

[[record]]
variant = "K10L"
class_assignment = "rule met"

[[record]]
variant = "A15W"
class_assignment = "rule met"

[[record]]
variant = "T3L"
class_assignment = "rule met"

[[record]]
variant = "I12W"
class_assignment = "rule met"

[[record]]
variant = "S19F"
class_assignment = "rule not met"

[[record]]
variant = "K17M"
class_assignment = "rule not met"

[[record]]
variant = "K17Y"
class_assignment = "rule met"

